Assay: DRUGMATRIX: GABAA, Chloride Channel, TBOB radioligand binding (ligand: [3H] TBOB)
Type: cell membranes, Rattus norvegicus, Wistar, Cerebral cortex, Membrane
Conditions: Not Active = under 50% inhibition at 10 µM
outcome_measure: IC50

Known results for compounds:
CCOc1cc(N)c(Cl)cc1C(=O)NCC1CN(Cc2ccc(F)cc2)CCO1 (centres undefined) [MOSAPRIDE]	Not Active
O=c1[nH]cnc2c1ncn2[C@H]1CC[C@@H](CO)O1	Not Active
CC12CCC(CC1=O)C2(C)C (centres undefined)	Not Active
Nc1nc(N)c2nc(CNc3ccc(C(=O)N[C@@H](CCC(=O)O)C(=O)O)cc3)cnc2n1	Not Active

Inquiry: Request the reported IC50 associated with O=C(O)c1cc(/N=N/c2ccc(S(=O)(=O)Nc3ccccn3)cc2)ccc1O
Reply text: Not Active

Inquiry: Item C[C@]12CCC(=O)C[C@@H]1CC[C@@H]1[C@@H]2CC[C@]2(C)[C@@H](O)CC[C@@H]12 has what recorded IC50?
Reply text: Not Active

Inquiry: Could you share which IC50 value was measured for CC(C)(C)NC[C@H](O)COc1cccc2c1CCCC2=O ?
Reply text: Not Active

Inquiry: What does the record list as IC50 for C[N+](C)(C)CCOC(N)=O.[Cl-] ?
Reply text: Not Active

Inquiry: Consider the compound shown here: CS(=O)(=O)c1ccc(C2=C(c3ccccc3)C(=O)OC2)cc1 What is its recorded IC50?
Reply text: Not Active
